FYI, the data here is from patent US12650422B2.

# System: Rat Hepatocytes
# PROTOCOL_DESCRIPTION: Hepatic intracellular concentration (ICC) in rat hepatocytes, observed vs predicted
# Format: in vitro ADME
# EXPERIMENTAL_SETUP: absence of protein (HBSS), adjusted with free fraction of Table 1; 1 μM
PROPERTY_MEASURED: Predicted ICC (uM) HBSS (µM)

>  <COMPOUND>
CCCCC(=O)N(Cc1ccc(-c2ccccc2-c2nnn[nH]2)cc1)[C@H](C(=O)O)C(C)C

>  <Predicted ICC (uM) HBSS, µM>
0.44

$$$$

A: CN(Cc1cnc2nc(N)nc(N)c2n1)c1ccc(C(=O)N[C@@H](CCC(=O)O)C(=O)O)cc1 [Methotrexate]
B: CC(C)c1nc(N(C)S(C)(=O)=O)nc(-c2ccc(F)cc2)c1/C=C/[C@@H](O)C[C@@H](O)CC(=O)O
Higher Predicted ICC (uM) HBSS: A or B ? Answer format: the label of the selected item. B
(B: 3.09 µM, A: 0.48 µM)
